assay: Metabolic stability in human liver microsomes (in vitro t1/2); type: in vitro ADME; conditions: human liver microsomes 0.5 mg/mL, 2 μM compound, % remaining at 60 min
OBSERVABLE: Human microsome % 60 min (%)

Examples with their reported Human microsome % 60 min follow.
# MOLECULE, Human microsome % 60 min, %
measured = [
    ("COc1cc(OC)cc(-c2cc(COC(C)(C)C(=O)O)nn2-c2ccccc2Cl)c1 [Example 179]", 93),
    ("CC[C@@](C)(OCc1cc(-c2cccc(OC)c2)n(Cc2ccccc2Cl)n1)C(=O)O [Example 121]", 82),
]

1 = CC(C)(C)COc1cccc(-c2cc(COC(C)(C)C(=O)O)nn2-c2ccccc2N2CCC2)c1 [Example 155]
2 = Cn1ncc2cccc(-n3nc(COC(C)(C)C(=O)O)cc3-c3cccc(OC4CCC4)c3)c21 [Example 166]
Ask: # argmax over Human microsome % 60 min for candidates 1 and 2 Response format: the label of the selected entry.
Reply: 2

====

experiment: Pharmacokinetic assay in mouse (IV 3 mg/kg, PO 10 mg/kg); format: in vivo; settings: male, CD1, mouse, plasma, read-out: Mouse F (%)
OBSERVABLE: bioavailability (%)

Answered cases to consult:
# STRUCTURE_SMILES_STRING, RESULT
data = [
    ("CCn1ncc2ccc(-c3cc(COC(C)(C)C(=O)O)nn3Cc3ccccc3Cl)cc21", 89),
    ("CCn1ncc2ccc(-c3cc(CO[C@@](C)(CC)C(=O)O)nn3Cc3ccccc3Cl)cc21", 76),
    ("CCOc1ccccc1Cn1nc(COC(C)(C)C(=O)O)cc1-c1cc(OC)cc(OC)c1", 57),
    ("COc1cccc(-c2cc(COC(C)(C)C(=O)O)nn2Cc2ccccc2Cl)c1", 100),
    ("CC(C)(OCc1cc(-c2cccc(OC3CC3)c2)n(-c2ccccc2Cl)n1)C(=O)O", 100),
    ("CCn1ncc2ccc(-c3cc(COC(C)(C)C(=O)O)nn3-c3ccccc3N3CCCC3)cc21", 100),
    ("CC(C)COc1cccc(-c2cc(COC(C)(C)C(=O)O)nn2-c2cccc3cnn(C)c23)c1", 100),
    ("CCn1ncc2ccc(-c3cc(CO[C@](C)(CC)C(=O)O)nn3-c3ccccc3N3CCC3)cc21", 100),
    ("CCn1ncc2ccc(-c3cc(CO[C@](C)(CC)C(=O)O)nn3Cc3ccccc3Cl)cc21", 100),
    ("CC[C@@](C)(OCc1cc(-c2cccc(OC3CC3)c2)n(-c2ccccc2N2CCC2)n1)C(=O)O", 100),
]

P = CC(C)(OCc1cc(-c2cccc(OC3CCC3)c2)n(-c2ccccc2N2CCC2)n1)C(=O)O
Q = CC(C)(OCc1cc(-c2cccc(OC3CC3)c2)n(-c2ccccc2N2CCC2)n1)C(=O)O
Ask: Between P and Q , whose recorded bioavailability is greater? Please reply using the label of the selected record.
Reply: P

I = Cn1ncc2cccc(-n3nc(COC(C)(C)C(=O)O)cc3-c3cccc(OCC(C)(C)C)c3)c21
II = CCCn1ncc2ccc(-c3cc(CO[C@](C)(CC)C(=O)O)nn3-c3ccccc3N3CCC3)cc21
Ask: Given I and II , report the one with the higher recorded bioavailability. Pick one; state its label.
Reply: II
(II: 64%, I: 24%)
